Value source: patent US10221177B2

target: human TRPA1 (Homo sapiens (Human)); assay: In vitro inhibition of human TRPA1, whole cell patch configuration; settings: current activation 10 μM AITC, tested concentrations 320 pM to 3.2 μM, read-out: hTRPA1 IC50
value kind: IC50 (nM)
Write the value in nM as a bare number.

Given the entry CCC(=O)Cn1c(=O)c2c(ncn2[C@@H](C)C(=O)Nc2cccc(-c3cnc(N4CC5CC5C4)nc3)n2)n(C)c1=O (stereo partly shown) [Compound 147] , what IC50 was observed with human TRPA1 (Homo sapiens (Human))? 6

Would you mind doing Cc1cc(Cn2c(=O)c3c(ncn3[C@@H](C)C(=O)Nc3cncc(-c4cnc(C)c(Cl)c4)n3)n(C)c2=O)no1 [Compound 139] as well? 11

Then what about the compound COc1cc(NC(=O)Cn2cnc3c2c(=O)n(Cc2cc(C)on2)c(=O)n3C)nc(C(F)(F)F)c1 [Compound 204] ? 3250

And for C[C@@H](C(=O)Nc1cncc(-c2cnc(C(F)(F)F)nc2)n1)n1cnc2c1c(=O)n(Cc1ccon1)c(=O)n2C [Compound 120] ? 26

* * *

molecular target: human TRPA1 (Homo sapiens (Human), UniProt O75762); assay: In vitro inhibition of human TRPA1, whole cell patch configuration; settings: current activation 10 μM AITC, tested concentrations 320 pM to 3.2 μM, read-out: hTRPA1 IC50
Sequence (O75762 whole entry): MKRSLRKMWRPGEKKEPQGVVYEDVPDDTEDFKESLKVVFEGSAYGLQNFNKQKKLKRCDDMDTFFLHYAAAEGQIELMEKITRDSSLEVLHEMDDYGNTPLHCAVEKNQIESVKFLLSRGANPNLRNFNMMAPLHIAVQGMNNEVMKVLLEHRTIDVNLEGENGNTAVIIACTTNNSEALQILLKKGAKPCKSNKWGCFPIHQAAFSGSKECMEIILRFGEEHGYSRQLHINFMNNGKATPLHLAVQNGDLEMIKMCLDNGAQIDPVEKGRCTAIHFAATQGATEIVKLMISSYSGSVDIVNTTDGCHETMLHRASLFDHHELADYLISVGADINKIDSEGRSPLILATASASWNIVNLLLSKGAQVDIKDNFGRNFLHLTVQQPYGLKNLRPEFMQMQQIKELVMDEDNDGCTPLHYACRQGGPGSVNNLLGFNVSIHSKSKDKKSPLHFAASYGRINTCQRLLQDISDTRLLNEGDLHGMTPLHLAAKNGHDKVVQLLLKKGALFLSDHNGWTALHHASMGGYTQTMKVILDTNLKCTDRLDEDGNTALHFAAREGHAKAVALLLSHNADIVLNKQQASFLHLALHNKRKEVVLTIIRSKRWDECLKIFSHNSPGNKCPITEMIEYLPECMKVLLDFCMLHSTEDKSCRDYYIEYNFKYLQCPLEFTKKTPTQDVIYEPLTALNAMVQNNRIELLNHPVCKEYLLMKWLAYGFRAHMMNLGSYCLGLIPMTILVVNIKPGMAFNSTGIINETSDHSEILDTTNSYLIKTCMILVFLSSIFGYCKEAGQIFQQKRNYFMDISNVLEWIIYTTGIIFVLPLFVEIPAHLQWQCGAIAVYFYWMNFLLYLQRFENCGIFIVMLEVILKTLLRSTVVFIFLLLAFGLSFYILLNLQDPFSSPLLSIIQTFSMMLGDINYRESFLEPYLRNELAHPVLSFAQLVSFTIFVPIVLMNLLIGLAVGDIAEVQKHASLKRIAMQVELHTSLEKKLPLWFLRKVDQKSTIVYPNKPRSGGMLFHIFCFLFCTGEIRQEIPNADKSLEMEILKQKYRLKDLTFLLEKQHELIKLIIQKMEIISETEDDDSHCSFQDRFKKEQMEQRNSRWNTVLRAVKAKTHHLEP
pIC50: −log10 of the molar value.
Assign class by pIC50: not lower than 8 means true; lower than 8 means false.

Reported pIC50 at or above 8? CCN(CC)c1ncc(-c2nc(NC(=O)[C@H](C)n3cnc4c3c(=O)n(Cc3cc(C)on3)c(=O)n4C)cs2)cn1 [Compound 36] true

Can you handle CC(=O)Cn1c(=O)c2c(ncn2CC(=O)Nc2cccc(-c3cnc(C(F)(F)F)nc3)n2)n(C)c1=O [Compound 185] next? false

Follow-up item: Cc1noc(Cn2c(=O)c3c(ncn3[C@@H](C)C(=O)Nc3cncc(-c4cnc(C(F)(F)F)nc4)n3)n(C)c2=O)n1 [Compound 160] false

Repeat for the following compound: Cc1cc(Cn2c(=O)c3c(ncn3[C@@H](C)C(=O)Nc3cccc(-c4cncc(C(F)(F)F)c4)n3)n(C)c2=O)no1 [Compound 156] true

Lookup C[C@@H](C(=O)Nc1cccc(-c2ccc(C(F)(F)F)nc2)n1)n1cnc2c1c(=O)n(Cc1ccccn1)c(=O)n2C [Compound 1] false

# repeat for Cc1ncc(-c2nc(NC(=O)[C@H](C)n3cnc4c3c(=O)n(CC(F)(F)F)c(=O)n4C)cs2)cc1C(F)(F)F [Compound 162] false

And what about the compound CCC(=O)Cn1c(=O)c2c(ncn2[C@@H](C)C(=O)Nc2cccc(-c3cnc(C)c(C(F)(F)F)c3)n2)n(C)c1=O [Compound 135] ? true

Request: CCOc1ncc(-c2cccc(NC(=O)[C@H](C)n3cnc4c3c(=O)n(CC(=O)CC)c(=O)n4C)n2)cc1C(F)(F)F [Compound 125] true

Param item: CNC(=O)Cn1c(=O)c2c(ncn2[C@@H](C)C(=O)Nc2csc(-c3cnc(N4CC5CC5C4)nc3)n2)n(C)c1=O (stereo partly shown) [Compound 71] false

Can you handle C[C@@H](C(=O)Nc1ccnc(-c2cnc(N3CC4CC4C3)nc2)n1)n1cnc2c1c(=O)n(CC#N)c(=O)n2C (stereo partly shown) [Compound 155] next? true

Entry Cc1nc(Cn2c(=O)c3c(ncn3[C@@H](C)C(=O)Nc3ccnc(-c4cnc(C)c(C(F)(F)F)c4)n3)n(C)c2=O)no1 [Compound 172] please true

C[C@@H](C(=O)Nc1cccc(-c2cnc(N3CC4CC4C3)nc2)n1)n1cnc2c1c(=O)n(CC#N)c(=O)n2C (stereo partly shown) [Compound 11] ? true

* * *

molecular target: human TRPA1 (Homo sapiens (Human)); test: In vitro inhibition of human TRPA1, whole cell patch configuration; type: cell-based; conditions: current activation 10 μM AITC, tested concentrations 320 pM to 3.2 μM, read-out: hTRPA1 IC50
value kind: pIC50
Entry type: numeric. Quantity: pIC50, the -log10 of concentration in molar units.

# query: pIC50 of entry CC(=O)Cn1c(=O)c2c(ncn2[C@@H](C)C(=O)Nc2csc(-c3cnc(C(F)(F)F)c(C)c3)n2)n(C)c1=O [Compound 82] 8.30

Try this compound too: C[C@@H](C(=O)Nc1csc(-c2ccc(N3CC4CC4C3)nc2)n1)n1cnc2c1c(=O)n(CC#N)c(=O)n2C (stereo partly shown) [Compound 66] 8.70

Also check Cc1nc2c(c(=O)n(Cc3ccccn3)c(=O)n2C)n1CC(=O)Nc1cccc(-c2cnc(C(F)(F)F)nc2)n1 [Compound 177] 7.38

Lookup Cc1cc(Cn2c(=O)c3c(ncn3CC(=O)Nc3cccc(-c4cnc(C(F)(F)F)c(C)c4)n3)n(C)c2=O)no1 [Compound 221] 8.30

* * *

Could you please report measured IC50 for the items listed next?
biological target: human TRPA1 (Homo sapiens (Human)); assay: In vitro inhibition of human TRPA1, whole cell patch configuration; details: current activation 10 μM AITC, tested concentrations 320 pM to 3.2 μM, read-out: hTRPA1 IC50
Answer as a quantity: numeral, then unit.

What measured IC50 goes with CCC(=O)Cn1c(=O)c2c(ncn2[C@@H](C)C(=O)Nc2csc(-c3cnc(C)c(Cl)c3)n2)n(C)c1=O [Compound 90] ? 3 nM

Also Cc1noc(Cn2c(=O)c3c(ncn3CC(=O)Nc3cccc(-c4cnc(C)c(C(F)(F)F)c4)n3)n(C)c2=O)n1 [Compound 241] ? 1 nM

Also need CC(=O)Cn1c(=O)c2c(ncn2[C@@H](C)C(=O)Nc2cncc(-c3cnc(N4CC5C(C4)C5(F)F)cn3)n2)n(C)c1=O (stereo partly shown) [Compound 164] , thanks. 21 nM

Please answer likewise for C[C@@H](C(=O)Nc1ccnc(-c2cnc(N3CCC[C@H]3C(F)(F)F)nc2)n1)n1cnc2c1c(=O)n(CC#N)c(=O)n2C [Compound 54] 7 nM

* * *

target: human TRPA1 (Homo sapiens (Human)); assay: In vitro inhibition of human TRPA1, whole cell patch configuration; settings: current activation 10 μM AITC, tested concentrations 320 pM to 3.2 μM, read-out: hTRPA1 IC50
Would you kindly list pIC50 for each of these compounds?
Quick note: pIC50 values are minus log10 of concentrations in mol/L.

Value lookup for pIC50; key = CC(=O)Cn1c(=O)c2c(ncn2[C@@H](C)C(=O)Nc2csc(-c3cnc(C)c(C(F)(F)F)c3)n2)n(C)c1=O [Compound 98] 8.52

Same for CC#CCn1c(=O)c2c(ncn2[C@@H](C)C(=O)Nc2csc(-c3cnc(N4CCC[C@H]4C(F)(F)F)nc3)n2)n(C)c1=O [Compound 268] 9.00

Now give it for CC(=O)Cn1c(=O)c2c(ncn2[C@@H](C)C(=O)Nc2ccnc(-c3cnc(N4CC5CC5C4)nc3)n2)n(C)c1=O (some centres unmarked) [Compound 143] too. 7.70

Can you check CC(=O)CCn1c(=O)c2c(ncn2CC(=O)Nc2cccc(-c3cnc(C)c(C(F)(F)F)c3)n2)n(C)c1=O [Compound 242] next? 6.54

Try the compound Cc1nc(Cn2c(=O)c3c(ncn3[C@@H](C)C(=O)Nc3cncc(-c4cnc(C)c(C(F)(F)F)c4)n3)n(C)c2=O)no1 [Compound 170] 7.57

Next: Cn1c(=O)n(Cc2ccccn2)c(=O)c2c1ncn2CC(=O)Nc1csc(-c2cnc(C(F)(F)F)nc2)n1 [Compound 191] 7.29

CC(=O)Cn1c(=O)c2c(ncn2CC(=O)Nc2cncc(-c3cnc(C(F)(F)F)c(C)c3)n2)n(C)c1=O [Compound 232] ? 7.25

Now consider CC(C(=O)Nc1cccc(-c2cnc(C(F)(F)F)nc2)n1)n1cnc2c1c(=O)n(CC#N)c(=O)n2C (centres unmarked) [Compound 10] and answer again. 7.62

Now the same for C[C@@H](C(=O)Nc1cncc(-c2cnc(N3CC4CC4C3)nc2)n1)n1cnc2c1c(=O)n(CC#N)c(=O)n2C (some centres unmarked) [Compound 12] 8.15

// repeat for Cc1cc(Cn2c(=O)c3c(ncn3CC(=O)Nc3cccc(N4CCC(F)(F)CC4)n3)n(C)c2=O)no1 [Compound 196] and report 6.91

Then this compound: C[C@@H](C(=O)Nc1cncc(-c2ccc(C(F)(F)F)nc2)n1)n1cnc2c1c(=O)n(Cc1ccon1)c(=O)n2C [Compound 119] 7.55

Try this compound next: CC#CCn1c(=O)c2c(ncn2[C@@H](C)C(=O)Nc2csc(-c3cnc(N4CCC[C@@H]4C(F)(F)F)nc3)n2)n(C)c1=O [Compound 157] 9.00

Next compound: Cc1noc(Cn2c(=O)c3c(ncn3[C@@H](C)C(=O)Nc3cccc(-c4cnc(C(F)(F)F)c(C)c4)n3)n(C)c2=O)n1 [Compound 131] 8.22

* * *

target: human TRPA1 (Homo sapiens (Human), UniProt O75762); test: In vitro inhibition of human TRPA1, whole cell patch configuration; details: current activation 10 μM AITC, tested concentrations 320 pM to 3.2 μM, read-out: hTRPA1 IC50
One threshold, 7 nM, splits the recorded IC50 values: lower ones are condition met, equal or higher ones are condition not met.

# TODO verify IC50 < 7 nM strictly for this compound: CCC(=O)Cn1c(=O)c2c(ncn2CC(=O)Nc2cncc(-c3cnc(C)c(C(F)(F)F)c3)n2)n(C)c1=O condition met

Next: CCC(=O)Cn1c(=O)c2c(ncn2[C@@H](C)C(=O)Nc2cccc(-c3ccc(N4CC5C(C4)C5(F)F)nc3)n2)n(C)c1=O (stereo partly shown) condition met

Now consider CC(=O)Cn1c(=O)c2c(ncn2[C@@H](C)C(=O)Nc2cncc(-c3cnc(N4CC5C(C4)C5(F)F)nc3)n2)n(C)c1=O (stereo partly shown) and answer again. condition met

Another compound: CC(=O)Cn1c(=O)c2c(ncn2[C@@H](C)C(=O)Nc2csc(-c3cnc(C)c(F)c3)n2)n(C)c1=O condition not met

And for CC(=O)Cn1c(=O)c2c(ncn2[C@@H](C)C(=O)Nc2ncsc2-c2cnc(C(F)(F)F)nc2)n(C)c1=O ? condition not met

What do you have for CC(=O)Cn1c(=O)c2c(ncn2[C@@H](C)C(=O)Nc2cncc(-c3ccc(C(F)(F)F)nc3)n2)n(C)c1=O ? condition not met

Now this one: CNC(=O)Cn1c(=O)c2c(ncn2[C@@H](C)C(=O)Nc2cccc(-c3cnc(C(F)(F)F)nc3)n2)n(C)c1=O condition not met

And CCOc1ncc(-c2cccc(NC(=O)[C@H](C)n3cnc4c3c(=O)n(Cc3cc(C)on3)c(=O)n4C)n2)cc1C(F)(F)F ? condition met

Another compound to check: CCC(=O)Cn1c(=O)c2c(ncn2CC(=O)Nc2cccc(-c3cnc(C)c(C(F)(F)F)c3)n2)n(C)c1=O condition met

Likewise for CC(O)Cn1c(=O)c2c(ncn2CC(=O)Nc2cccc(-c3cnc(N4CCC[C@H]4C(F)(F)F)nc3)n2)n(C)c1=O (stereo partly shown) ? condition not met
